# tgt: hT1R1/hT1R3 umami receptor (Homo sapiens, UniProt Q7RTX0+Q7RTX1)
# Construct: expressed in transfected cells; host or cells: HEK293 derivative stably expressing Gα15, clone I-17, expression induced with mifepristone
# Sequence (Q7RTX1 21-841): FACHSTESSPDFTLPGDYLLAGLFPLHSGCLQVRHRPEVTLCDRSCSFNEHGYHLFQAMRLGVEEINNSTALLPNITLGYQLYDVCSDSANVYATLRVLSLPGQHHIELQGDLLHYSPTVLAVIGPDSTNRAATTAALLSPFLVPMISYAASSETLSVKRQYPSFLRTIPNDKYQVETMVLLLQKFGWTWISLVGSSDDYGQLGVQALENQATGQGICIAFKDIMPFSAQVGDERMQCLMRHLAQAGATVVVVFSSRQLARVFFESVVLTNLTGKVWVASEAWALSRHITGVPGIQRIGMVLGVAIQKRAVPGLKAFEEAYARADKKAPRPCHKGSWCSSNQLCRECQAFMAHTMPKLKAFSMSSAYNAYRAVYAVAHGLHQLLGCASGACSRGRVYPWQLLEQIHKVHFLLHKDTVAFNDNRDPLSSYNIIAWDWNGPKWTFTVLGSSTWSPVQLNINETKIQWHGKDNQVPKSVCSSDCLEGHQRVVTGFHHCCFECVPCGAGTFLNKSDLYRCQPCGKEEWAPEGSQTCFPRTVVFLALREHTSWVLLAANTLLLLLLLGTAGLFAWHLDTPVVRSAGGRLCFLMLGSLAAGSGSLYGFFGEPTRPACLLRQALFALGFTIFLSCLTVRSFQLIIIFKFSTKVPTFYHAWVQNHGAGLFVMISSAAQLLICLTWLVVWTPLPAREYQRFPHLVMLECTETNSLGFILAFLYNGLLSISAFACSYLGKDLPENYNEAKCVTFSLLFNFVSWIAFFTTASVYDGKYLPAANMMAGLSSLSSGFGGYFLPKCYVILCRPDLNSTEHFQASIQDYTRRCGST
# Sequence (Q7RTX0 21-852): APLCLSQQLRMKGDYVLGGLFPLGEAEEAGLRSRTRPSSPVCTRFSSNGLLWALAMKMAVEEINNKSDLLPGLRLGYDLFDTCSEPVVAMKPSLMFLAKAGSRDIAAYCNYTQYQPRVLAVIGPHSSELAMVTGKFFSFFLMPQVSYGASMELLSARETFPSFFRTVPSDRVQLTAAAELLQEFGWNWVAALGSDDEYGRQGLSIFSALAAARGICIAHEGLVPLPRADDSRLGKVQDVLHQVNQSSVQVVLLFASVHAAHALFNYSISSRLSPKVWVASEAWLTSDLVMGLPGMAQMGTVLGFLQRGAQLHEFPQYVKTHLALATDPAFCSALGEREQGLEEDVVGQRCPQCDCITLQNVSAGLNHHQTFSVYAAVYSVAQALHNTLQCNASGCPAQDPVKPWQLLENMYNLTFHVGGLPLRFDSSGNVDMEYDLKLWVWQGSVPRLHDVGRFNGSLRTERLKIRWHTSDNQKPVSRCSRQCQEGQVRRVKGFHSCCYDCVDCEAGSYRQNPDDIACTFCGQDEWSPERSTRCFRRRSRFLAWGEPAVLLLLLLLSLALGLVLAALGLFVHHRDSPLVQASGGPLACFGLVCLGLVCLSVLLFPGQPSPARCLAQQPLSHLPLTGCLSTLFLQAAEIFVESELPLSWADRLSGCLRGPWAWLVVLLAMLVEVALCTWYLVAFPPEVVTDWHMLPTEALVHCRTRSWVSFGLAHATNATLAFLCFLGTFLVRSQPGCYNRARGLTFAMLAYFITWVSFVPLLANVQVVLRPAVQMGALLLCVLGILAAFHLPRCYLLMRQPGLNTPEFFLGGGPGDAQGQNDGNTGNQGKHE
# test-method-notes: Umami taste enhancement activity assay (EC50 ratio vs. MSG)
# Type: cell-based
# measurement-context: Table A; compound @ 1 uM
measure-name: Ec50 ratio (vs. MSG)
# output: bare number, no unit

// solved cases for Ec50 ratio (vs. MSG) follow
>  <compound>
COc1cccc(C(=O)N[C@H]2CCCc3ccccc32)c1O

>  <tgt>
hT1R1/hT1R3 umami receptor (Homo sapiens, UniProt Q7RTX0+Q7RTX1)

>  <Ec50 ratio (vs. MSG)>
5.7

$$$$
>  <compound>
Cc1ccc(C(=O)NC2CCCc3ccccc32)s1 (stereo not shown)

>  <tgt>
hT1R1/hT1R3 umami receptor (Homo sapiens, UniProt Q7RTX0+Q7RTX1)

>  <Ec50 ratio (vs. MSG)>
2.3

$$$$
>  <compound>
COc1cccc(C(=O)NC2CCCc3ccccc32)c1O (stereo not shown)

>  <tgt>
hT1R1/hT1R3 umami receptor (Homo sapiens, UniProt Q7RTX0+Q7RTX1)

>  <Ec50 ratio (vs. MSG)>
3.8

$$$$

Looking up `CCCC(CCC)NC(=O)c1cc2cc(OC)ccc2o1` , I see its Ec50 ratio (vs. MSG) listed as 4.51

Reference source for all entries: patent US8124121B2
